- System: M14 melanoma
- Protocol text: NCI tumour cell line growth inhibition, 48 h; in the data active = GI50 below about 0.43 µM; inactive = the rest
Would you mind answering with one of these outcomes? true (active), false (inactive)

# example entries with known answers
> print(dat)
                                   molecule  qualitative.label
1  COc1ccc(/C=C2/SC(=Nc3c(C)nn(-c4ccccc4)c3N)NC2=O)cc1              false
2  CCOC(=O)c1cc2c(n1Cc1cccc(OC)c1)-c1oncc1CC2              false
3  C=C1C(=O)O[C@@H]2[C@@H]3O[C@@](C)(CC/C=C(\C)CCC[C@@H]2C)[C@H](O)C[C@@H]13              false

Q: Assay result, entry `COc1ccc(C(=O)/C=C/c2ccc(Cl)cc2)cc1S(N)(=O)=O` — outcome?
A: false

Q: So what was the verdict on `Cc1cc(Cl)n2c(nc3ccccc32)c1C#N` in this test?
A: true

Q: Test call, this molecule: C=C1C(=O)OC(CCCCCCCC)C1C(=O)O (centres undefined)
A: false

Q: Write down the call the test reported for this molecule. Item: `CCN1CCC(C(=O)Nc2n[nH]c3nnc(-c4cccc(F)c4F)cc23)CC1`
A: false

Q: // param item: `COc1ccc(NC(=O)c2ccc(NC3=C(Cl)C(=O)N(Cc4ccccc4)C3=O)cc2)cc1` ; yields the recorded call
A: false

Q: Hey, what did the test say about `O=C(CCCCCCc1nc2ccc(Br)cc2[nH]1)NO` ?
A: true
